assay: log P determination by HPLC (EEC Directive 79/831 Annex V.A8); format: physicochemical; settings: reversed-phase HPLC, Zorbax Eclipse C18 column, by HPLC according to EEC Directive 79/831 Annex V.A8; read-out: log P
Label rule, in plain words: chromatographic logP of 4 and up is Yes, under 4 is No.

## Input Decide: is the reported value of chromatographic logP for CSC[C@H](C)NC(=O)c1cc(Cl)cc(C)c1NC(=O)c1cc(Cn2nnc(C(F)(C(F)(F)F)C(F)(F)F)n2)nn1-c1ncccc1Cl [Example 361] equal to or greater than 4?
## Output Yes

## Input Decide: is the reported value of chromatographic logP for CC(C)(C)NC(=O)c1cc(Cl)cc(Cl)c1NC(=O)c1cc(Cn2nnc(C(F)(C(F)(F)F)C(F)(F)F)n2)nn1-c1ncccc1Cl [Example 390] equal to or greater than 4?
## Output Yes

## Input Decide: is the reported value of chromatographic logP for Cc1cc(C#N)cc(C(=O)NC2CC2)c1NC(=O)c1cc(Cn2nnc(C(F)(F)F)n2)nn1-c1ncccc1Br [Example 333] equal to or greater than 4?
## Output No

## Input Decide: is the reported value of chromatographic logP for Cc1cc(I)cc(C(=O)NC(C)C2CC2)c1NC(=O)c1cc(Cn2nnc(C(F)(C(F)(F)F)C(F)(F)F)n2)nn1-c1ncccc1Cl (stereo not shown) [Example 378] equal to or greater than 4?
## Output Yes

## Input Decide: is the reported value of chromatographic logP for Cc1cc(Cl)cc(C(=O)NC(C)(C)C)c1NC(=O)c1cc(Cn2nnc(C(F)(F)F)n2)nn1-c1ccccc1Br [Example 348] equal to or greater than 4?
## Output Yes

## Input Decide: is the reported value of chromatographic logP for CSC[C@H](C)NC(=O)c1cc(I)cc(C)c1NC(=O)c1cc(Cn2nnc(C(F)(C(F)(F)F)C(F)(F)F)n2)nn1-c1ncccc1Cl [Example 385] equal to or greater than 4?
## Output Yes

## Input Decide: is the reported value of chromatographic logP for Cc1cc(Br)cc(C(=O)NC(C)C)c1NC(=O)c1cc(Cn2nnc(C(F)(F)F)n2)nn1-c1ncccc1Br [Example 355] equal to or greater than 4?
## Output No

## Input Decide: is the reported value of chromatographic logP for CCNC(=O)c1cc(C#N)cc(C)c1NC(=O)c1cc(Cn2nnc(C(F)(F)F)n2)nn1-c1ccccc1Cl [Example 342] equal to or greater than 4?
## Output No

## Input Decide: is the reported value of chromatographic logP for Cc1cc(C#N)cc(C(=O)NCC(F)F)c1NC(=O)c1cc(Cn2nnc(C(F)(C(F)(F)F)C(F)(F)F)n2)nn1-c1ncccc1Cl [Example 375] equal to or greater than 4?
## Output No

## Input Decide: is the reported value of chromatographic logP for CSC[C@H](C)NC(=O)c1cc(Cl)cc(Cl)c1NC(=O)c1cc(Cn2nnc(C(F)(C(F)(F)F)C(F)(F)F)n2)nn1-c1ncccc1Cl [Example 394] equal to or greater than 4?
## Output Yes

## Input Decide: is the reported value of chromatographic logP for CC(NC(=O)c1cc(Cl)cc(Cl)c1NC(=O)c1cc(Cn2nnc(C(F)(C(F)(F)F)C(F)(F)F)n2)nn1-c1ncccc1Cl)C1CC1 (stereo not shown) [Example 387] equal to or greater than 4?
## Output Yes

## Input Decide: is the reported value of chromatographic logP for Cc1cc(Cl)cc(C(=O)NC(C)C)c1NC(=O)c1cc(Cn2nnc(C(F)(F)F)n2)nn1-c1ncccc1C(F)(F)F [Example 227] equal to or greater than 4?
## Output No

## Input Decide: is the reported value of chromatographic logP for CNC(=O)c1cc(Cl)cc(C)c1NC(=O)c1cc(Cn2nnc(C(F)(F)F)n2)nn1-c1ncccc1Br [Example 331] equal to or greater than 4?
## Output No

## Input Decide: is the reported value of chromatographic logP for O=C(NCC1CC1)c1cc(Cl)cc(Cl)c1NC(=O)c1cc(Cn2nnc(C(F)(C(F)(F)F)C(F)(F)F)n2)nn1-c1ncccc1Cl [Example 392] equal to or greater than 4?
## Output Yes

## Input Decide: is the reported value of chromatographic logP for CNC(=O)c1cc(Cl)cc(C)c1NC(=O)c1cc(Cn2nnc(C(F)(F)F)n2)nn1-c1ccccc1F [Example 311] equal to or greater than 4?
## Output No

## Input Decide: is the reported value of chromatographic logP for Cc1cc(Cl)cc(C(=O)NCC#N)c1NC(=O)c1cc(Cn2nnc(C(F)(F)F)n2)nn1-c1ncccc1C(F)(F)F [Example 252] equal to or greater than 4?
## Output No

## Input Decide: is the reported value of chromatographic logP for Cc1cc(I)cc(C(=O)NC(C)(C)C)c1NC(=O)c1cc(Cn2nnc(C(F)(F)F)n2)nn1-c1ncccc1C(F)(F)F [Example 242] equal to or greater than 4?
## Output Yes

## Input Decide: is the reported value of chromatographic logP for Cc1cc(I)cc(C(N)=O)c1NC(=O)c1cc(Cn2nnc(C(F)(F)F)n2)nn1-c1ncccc1C(F)(F)F [Example 250] equal to or greater than 4?
## Output No

## Input Decide: is the reported value of chromatographic logP for CCNC(=O)c1cc(C#N)cc(C)c1NC(=O)c1cc(Cn2nnc(C(F)(F)F)n2)nn1-c1ncccc1Br [Example 322] equal to or greater than 4?
## Output No

## Input Decide: is the reported value of chromatographic logP for CCC(COC(F)(F)F)NC(=O)c1cc(C#N)cc(C)c1NC(=O)c1cc(Cn2nnc(C(F)(F)F)n2)nn1-c1ncccc1Cl (stereo not shown) [Example 117] equal to or greater than 4?
## Output No
